assay protocol: Stability in human liver microsomes
Assay type: ADME, microsome
experimental context: read-out: Stability
measured parameter: microsomal CLint (µL/min/mg)

C=CC(=O)N1CCC[C@@H](Nc2ncnc3[nH]ccc23)C1 = 8

A = C=CC(=O)N1CC[C@H]2CCN(c3ncnc4[nH]ccc34)[C@H]2C1
B = C=CC(=O)N1C[C@H](Nc2ncnc3[nH]ccc23)CC[C@@H]1C [RITLECITINIB]
Which record would sort first by descending microsomal CLint, A or B ? # reply format: chosen label
A

---

experimental system: Tyrosine-protein kinase JAK1 (Homo sapiens)
Sequence (P23458 whole entry, the tested form may be a part): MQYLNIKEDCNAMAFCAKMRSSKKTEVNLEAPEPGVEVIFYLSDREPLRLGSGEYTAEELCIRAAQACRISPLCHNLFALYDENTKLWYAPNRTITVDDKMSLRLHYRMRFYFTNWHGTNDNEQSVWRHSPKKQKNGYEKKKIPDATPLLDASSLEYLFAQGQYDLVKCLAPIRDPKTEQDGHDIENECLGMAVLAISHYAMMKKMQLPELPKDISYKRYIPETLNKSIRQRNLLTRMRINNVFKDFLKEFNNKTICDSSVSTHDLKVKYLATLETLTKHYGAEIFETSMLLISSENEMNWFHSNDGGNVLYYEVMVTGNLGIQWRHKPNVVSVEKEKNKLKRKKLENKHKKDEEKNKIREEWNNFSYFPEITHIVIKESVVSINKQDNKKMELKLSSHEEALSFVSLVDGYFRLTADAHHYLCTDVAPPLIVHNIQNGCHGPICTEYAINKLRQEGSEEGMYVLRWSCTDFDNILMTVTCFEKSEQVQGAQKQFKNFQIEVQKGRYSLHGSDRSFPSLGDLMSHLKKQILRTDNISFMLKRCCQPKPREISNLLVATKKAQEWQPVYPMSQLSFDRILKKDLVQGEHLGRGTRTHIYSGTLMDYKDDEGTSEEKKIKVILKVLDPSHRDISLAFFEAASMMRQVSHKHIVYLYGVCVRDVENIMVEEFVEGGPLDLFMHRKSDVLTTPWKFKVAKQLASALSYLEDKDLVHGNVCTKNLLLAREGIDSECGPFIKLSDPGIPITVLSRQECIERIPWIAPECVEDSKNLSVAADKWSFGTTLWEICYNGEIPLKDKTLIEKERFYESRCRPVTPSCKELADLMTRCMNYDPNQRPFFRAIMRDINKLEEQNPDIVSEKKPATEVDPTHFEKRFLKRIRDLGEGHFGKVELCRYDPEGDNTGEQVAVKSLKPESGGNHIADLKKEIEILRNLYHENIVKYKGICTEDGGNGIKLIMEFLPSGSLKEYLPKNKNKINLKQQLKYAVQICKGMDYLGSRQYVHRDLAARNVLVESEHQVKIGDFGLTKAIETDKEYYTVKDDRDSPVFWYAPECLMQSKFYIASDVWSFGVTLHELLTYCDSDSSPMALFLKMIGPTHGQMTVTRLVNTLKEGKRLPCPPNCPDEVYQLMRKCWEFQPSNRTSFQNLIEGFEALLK
assay protocol: Inhibition of recombinant human GST-tagged cytoplasmic JAK1 catalytic domain (866 to 1154 residues) expressed in baculovirus expression system using 5FAM-KKSRGDYMTMQID as substrate in presence of 1 mM ATP by microfluidic assay
measured parameter: IC50 (µM)

C=CC(=O)N1CCC[C@@H](N(C)c2ncnc3[nH]ccc23)C1 = 7.82

1 = C=CC(=O)Nc1cccc(-c2ncnc3[nH]ccc23)c1
2 = C=CC(=O)N1CC[C@@H](C)[C@@H](N(C)c2ncnc3[nH]ccc23)C1
Which record would sort first by descending IC50, 1 or 2 ? # reply format: chosen label
1
(1: 8.71 µM, 2: 0.988 µM)

---

# pIC50 listing for each entry below
experimental system: Tyrosine-protein kinase JAK1 (Homo sapiens)
assay protocol: Inhibition of recombinant human GST-tagged cytoplasmic JAK1 catalytic domain (866 to 1154 residues) expressed in baculovirus expression system using 5FAM-KKSRGDYMTMQID as substrate in presence of 1 mM ATP by microfluidic assay
pIC50: −log10 of the molar value.

C=CC(=O)N1CCC[C@@H](Nc2ncnc3[nH]ccc23)C1 = < 5.00
C=CC(=O)N1CC[C@H]2CCN(c3ncnc4[nH]ccc34)[C@H]2C1 = < 5.00
CC(=O)N1CC[C@H]2CCN(c3ncnc4[nH]ccc34)[C@H]2C1 = < 5.00

Please report the recorded pIC50 for C/C=C/C(=O)N1CCC[C@@H](Nc2ncnc3[nH]ccc23)C1 .
< 5.00
